# Tested on: DeltatarO mutant
# methodSummary: S. aureus survival, RN4220 and DeltatarO strains – OD600, teichoic acid synthesis inhibitors, primary screen (AID 463173)
# conditionDescription: S. aureus RN4220 wild type/DeltatarO growth, OD600, 18 h, stronger effect = lower value, screened at 18.75 µg/mL (by protocol)
The campaign covered roughly 52,000 compounds. About 4,300 (8.3%) were called active. This is one part of a sample in which actives are shown more often than they occur.
Label 1 when survival is strictly below 70%; otherwise label 0.

molecule	assignedLabel
CC(C)c1nn2c(=O)cc(COC(=O)CNC(=O)c3ccccc3Cl)nc2s1	0
COc1cccc(C(=O)N(Cc2nc(-c3ccc(Cl)cc3)no2)C(C)C)c1OC	1

Exam item: For this molecule, is survival lower than 70%? O=C1[C@@H]2CSC(c3ccc(C(F)(F)F)cc3)N2C(=O)N1c1ccccc1 (stereo not given in full)
Marked response: 0

Exam item: In the record for "COc1ccccc1N1CCN(C(=O)c2ccco2)CC1" , is survival less than 70%?
Marked response: 0

----------
# System: DeltatarO mutant
# methodSummary: S. aureus survival, RN4220 and DeltatarO strains – OD600, teichoic acid synthesis inhibitors, primary screen (AID 463173)
# conditionDescription: S. aureus RN4220 wild type/DeltatarO growth, OD600, 18 h, stronger effect = lower value, screened at 18.75 µg/mL (by protocol)
In all, about 52,000 compounds went through this assay and about 4,300 (8.3%) were called active. The entries come from a sample that favours actives as a whole.
Returns: string. Value is 1 (yes) if measured survival is below 90%, and 0 (no) if it is greater than or equal to it.

Example entries and their recorded answers appear below.
compound	assignedLabel
COc1cccc(CNc2sc3c(c2C(=O)Nc2ccc(OC)cc2OC)CCC3)c1	0 (no)
Cc1ccc2c(CC(=O)Nc3c(C(=O)c4ccc(F)cc4)oc4ccccc34)coc2c1	1 (yes)
O=C(Cn1c(=O)c2ccccc2n(CC(=O)Nc2ccc(F)cc2F)c1=O)NCCc1ccccc1	1 (yes)
CCOC(=O)c1ccc(NC(=O)C2=C(C)C(=O)OC23CCCCCC3)cc1	1 (yes)
COc1ccc(OC)c(NC(=O)COCc2cc(-c3ccc(F)cc3)on2)c1	0 (no)

Exam item: hey, is survival for "COc1ccccc1CNC(=O)CS(=O)(=O)Cc1nc(-c2ccccc2C)oc1C" lower than 90% or not?
Marked response: 1 (yes)

Exam item: Strictly below 90%: is that where survival of "O=C(Nc1cccc(F)c1)c1ccc2c(c1)N(Cc1ccccc1)C(=O)c1ccccc1S2(=O)=O" sits?
Marked response: 1 (yes)

Exam item: Hi there! Is survival for "CCCc1cc(C(=O)Nc2c(C)nn(Cc3ccc(Cl)c(Cl)c3)c2C)no1" below 90%, do you know?
Marked response: 1 (yes)

Exam item: # check: survival < 90% for CC(C)CCNC(=O)C1CCC(Cn2c(=O)c3sccc3n(CC(=O)NC(C)C)c2=O)CC1 (stereo not given)
Marked response: 0 (no)

----------
# Test system: DeltatarO mutant
# methodSummary: S. aureus survival, RN4220 and DeltatarO strains – OD600, teichoic acid synthesis inhibitors, primary screen (AID 463173)
# conditionDescription: S. aureus RN4220 wild type/DeltatarO growth, OD600, 18 h, stronger effect = lower value, screened at 18.75 µg/mL (by protocol)
The whole screen tested about 52,000 compounds, of which about 4,300 (8.3%) were called active. This excerpt belongs to a sample that is enriched for actives.
Rule: measured survival below 80% gets Y; anything equal to or greater than 80% gets N.

Example entries and their recorded answers appear below.
compound	assignedLabel
COC(=O)c1ccccc1NC(=O)Cn1ncc2c(C)n(Cc3ccc(F)cc3)c(C)c2c1=O	Y
Fc1ccc(C(c2nnc(-c3ccccc3)o2)N2CCN(c3cccc(Cl)c3)CC2)cc1 (configuration not stated)	N
COc1ccccc1NC(=O)COC(=O)CC(C)(C)CC1=NS(=O)(=O)c2ccccc2N1	Y
O=C(COC(=O)CCCC1=NS(=O)(=O)c2ccccc2N1)Nc1ccc(Br)cc1	Y

Exam item: Decide: survival of "NC1CCN(C(=O)NC2CCCCC2)CC1" strictly below 80%?
Marked response: N

Exam item: Answer whether the compound "COC(=O)c1ccccc1NC(=O)c1ccc2nc(CCc3ccccc3)oc2c1" has survival strictly less than 80%
Marked response: N

Exam item: Criterion: survival strictly below 80%. Is it met by "Cc1coc2cc3oc(=O)c(CCC(=O)NCc4ccc(Cl)cc4)c(C)c3cc12" ?
Marked response: Y

Exam item: hey, is survival for "CCOc1cccc2sc(N(Cc3cccnc3)C(=O)c3ccco3)nc12" lower than 80% or not?
Marked response: Y

Exam item: Determine if Cc1cccc(N2CCN(C(c3ccccc3)c3nnc(-c4ccccc4F)o3)CC2)c1C (configuration not stated) shows survival strictly lower than 80%.
Marked response: Y
